# System: Streptococcus pneumoniae
# Test description: Antibacterial activity against erythromycin-susceptible Streptococcus pneumoniae ATCC 49619
# Assay type: functional
The compounds listed here are annotated with their MIC.
Supply the numeric figure in µg/mL, leaving out any unit text.

These recorded examples may help you get a feel for the data.
>  <Smiles input>
CC[C@H]1OC(=O)[C@H](C)[C@@H](O[C@H]2C[C@@](C)(OC)[C@@H](OC(=O)NCc3cn(Cc4c(Cl)cccc4Cl)nn3)[C@H](C)O2)[C@H](C)[C@@H](O[C@@H]2O[C@H](C)C[C@H](N(C)C)[C@H]2O)[C@](C)(O)C[C@@H](C)CN(C)[C@H](C)[C@H]2OC(=O)O[C@@]21C

>  <Target or test system>
Streptococcus pneumoniae

>  <Quantity kind>
MIC

>  <Unit abbreviation>
µg/mL

>  <Data value>
1

$$$$
>  <Smiles input>
CC[C@H]1OC(=O)[C@H](C)[C@@H](O[C@H]2C[C@@](C)(OC)[C@@H](OC(=O)NCc3cn(Cc4cccc(F)c4)nn3)[C@H](C)O2)[C@H](C)[C@@H](O[C@@H]2O[C@H](C)C[C@H](N(C)C)[C@H]2O)[C@](C)(O)C[C@@H](C)CN(C)[C@H](C)[C@H]2OC(=O)O[C@@]21C

>  <Target or test system>
Streptococcus pneumoniae

>  <Quantity kind>
MIC

>  <Unit abbreviation>
µg/mL

>  <Data value>
1

$$$$

query: # returns recorded MIC (system: Streptococcus pneumoniae) for "CC[C@H]1OC(=O)[C@H](C)[C@@H](O[C@H]2C[C@@](C)(OC)[C@@H](OC(=O)NCc3cn(Cc4ccc(C)cc4)nn3)[C@H](C)O2)[C@H](C)[C@@H](O[C@@H]2O[C@H](C)C[C@H](N(C)C)[C@H]2O)[C@](C)(O)C[C@@H](C)CN(C)[C@H](C)[C@@H](OC(=O)NCc2ccccc2)[C@]1(C)O"
result: 0.125

---

# Test system: Streptococcus pneumoniae
# Test description: Antibacterial activity against erythromycin-susceptible Streptococcus pneumoniae ATCC 49619
# Type: functional
Quantity kind: MIC (µg/mL)
Supply the numeric figure in µg/mL, leaving out any unit text.

These recorded examples may help you get a feel for the data.
>  <Smiles input>
CC[C@H]1OC(=O)[C@H](C)[C@@H](O[C@H]2C[C@@](C)(OC)[C@@H](OC(=O)NCc3cn(Cc4ccc(Cl)cc4Cl)nn3)[C@H](C)O2)[C@H](C)[C@@H](O[C@@H]2O[C@H](C)C[C@H](N(C)C)[C@H]2O)[C@](C)(O)C[C@@H](C)CN(C)[C@H](C)[C@@H](O)[C@]1(C)O

>  <MIC [µg/mL]>
0.25

$$$$
>  <Smiles input>
CC[C@H]1OC(=O)[C@H](C)[C@@H](O[C@H]2C[C@@](C)(OC)[C@@H](OC(=O)NCc3cn(Cc4cccc(C)c4)nn3)[C@H](C)O2)[C@H](C)[C@@H](O[C@@H]2O[C@H](C)C[C@H](N(C)C)[C@H]2O)[C@](C)(O)C[C@@H](C)CN(C)[C@H](C)[C@@H](O)[C@]1(C)O

>  <MIC [µg/mL]>
0.5

$$$$
>  <Smiles input>
CC[C@H]1OC(=O)[C@H](C)[C@@H](O[C@H]2C[C@@](C)(OC)[C@@H](OC(=O)NCc3cn(Cc4cccc(Cl)c4)nn3)[C@H](C)O2)[C@H](C)[C@@H](O[C@@H]2O[C@H](C)C[C@H](N(C)C)[C@H]2O)[C@](C)(O)C[C@@H](C)CN(C)[C@H](C)[C@H]2OC(=O)O[C@@]21C

>  <MIC [µg/mL]>
1

$$$$
>  <Smiles input>
CC[C@H]1OC(=O)[C@H](C)[C@@H](O[C@H]2C[C@@](C)(OC)[C@@H](OC(=O)NCc3cn(Cc4ccc(F)cc4)nn3)[C@H](C)O2)[C@H](C)[C@@H](O[C@@H]2O[C@H](C)C[C@H](N(C)C)[C@H]2O)[C@](C)(O)C[C@@H](C)CN(C)[C@H](C)[C@H]2OC(=O)O[C@@]21C

>  <MIC [µg/mL]>
1

$$$$

query: Quick one: MIC of "CC[C@H]1OC(=O)[C@H](C)[C@@H](O[C@H]2C[C@@](C)(OC)[C@@H](OC(=O)NCc3cn(Cc4ccc(Cl)cc4)nn3)[C@H](C)O2)[C@H](C)[C@@H](O[C@@H]2O[C@H](C)C[C@H](N(C)C)[C@H]2O)[C@](C)(O)C[C@@H](C)CN(C)[C@H](C)[C@@H](OC(=O)NCc2ccc(OC)cc2)[C@]1(C)O" ?
result: 0.125

query: Please do the same for "CC[C@H]1OC(=O)[C@H](C)[C@@H](O[C@H]2C[C@@](C)(OC)[C@@H](O)[C@H](C)O2)[C@H](C)[C@@H](O[C@@H]2O[C@H](C)C[C@H](N(C)C)[C@H]2O)[C@](C)(OC)C[C@@H](C)C(=O)[C@H](C)[C@@H](O)[C@]1(C)O" as well.
result: 0.125

query: Please do the same for "CC[C@H]1OC(=O)[C@H](C)[C@@H](O[C@H]2C[C@@](C)(OC)[C@@H](OC(=O)NCc3cn(Cc4c(Cl)cccc4Cl)nn3)[C@H](C)O2)[C@H](C)[C@@H](O[C@@H]2O[C@H](C)C[C@H](N(C)C)[C@H]2O)[C@](C)(O)C[C@@H](C)CN(C)[C@H](C)[C@@H](OC(=O)NCc2ccc(OC)cc2)[C@]1(C)O" as well.
result: 0.06

query: Please do the same for "CC[C@H]1OC(=O)[C@H](C)[C@@H](O[C@H]2C[C@@](C)(OC)[C@@H](OC(=O)NCc3cn(Cc4ccccc4Cl)nn3)[C@H](C)O2)[C@H](C)[C@@H](O[C@@H]2O[C@H](C)C[C@H](N(C)C)[C@H]2O)[C@](C)(O)C[C@@H](C)CN(C)[C@H](C)[C@@H](O)[C@]1(C)O" as well.
result: 0.25

query: Please do the same for "CC[C@H]1OC(=O)[C@H](C)[C@@H](O[C@H]2C[C@@](C)(OC)[C@@H](OC(=O)NCc3cn(Cc4c(Cl)cccc4Cl)nn3)[C@H](C)O2)[C@H](C)[C@@H](O[C@@H]2O[C@H](C)C[C@H](N(C)C)[C@H]2O)[C@](C)(O)C[C@@H](C)CN(C)[C@H](C)[C@@H](O)[C@]1(C)O" as well.
result: 0.5

query: Please do the same for "CC[C@H]1OC(=O)[C@H](C)[C@@H](O[C@H]2C[C@@](C)(OC)[C@@H](OC(=O)NCc3cn(Cc4c(Cl)cccc4Cl)nn3)[C@H](C)O2)[C@H](C)[C@@H](O[C@@H]2O[C@H](C)C[C@H](N(C)C)[C@H]2O)[C@](C)(O)C[C@@H](C)CN(C)[C@H](C)[C@@H](OC(=O)NCc2ccccc2)[C@]1(C)O" as well.
result: 0.125
